# Tested on: DLD-1
# protocol.description: NCI tumour cell line growth inhibition, 48 h
Activity calls are given as the source filed them. No stated cut-off is given here; in the data, active = GI50 up to about 1.1 µM and inactive = higher.
Classes used: 1 for active, -1 for inactive

compound | assigned.label
O=C(/C=C\c1ccc(Cl)c(Cl)c1)c1ccc(Cl)cc1Cl | -1
COc1ccc2c(c1O)-c1cc(O)cc3c1[C@@H](C2)N(C)CC3 | -1
O=S(O)CCCSSc1ccccc1 | -1
COc1cc(C2C(Cl)C(=O)N2NC(=O)c2ccc(N)cc2)cc(Br)c1O (centres undefined) | -1
N#CCc1ccc(C(C#N)/C(CCCC(=O)Nc2cccc([N+](=O)[O-])c2)=N/NC(N)=S)cc1 (centres undefined) | -1
O=C1C=CC(=O)c2c1c1c(c3c2C2c4ccccc4C3c3ccccc32)C2c3ccccc3C1c1ccccc12 | 1
CC(C)(C)N1CC2(CCCCC2)C1=O | -1
COC1/C=C\C=C(/C)C(=O)NC2=CC(=O)C(NCCCl)=C(CC(C)CC(OC)C(O)C(C)/C=C(/C)C1OC(N)=O)C2=O (centres undefined) | 1
Cc1c(Cl)cccc1NC(=O)c1cccc([N+](=O)[O-])c1O | -1
C=C(CN(C)C)C(=O)c1ccccc1 | -1
COc1c(C)c2c(c(C)c1Cl)Oc1c(C=O)c(O)c(Cl)c(C)c1C(=O)O2 | -1
O=C(C(=O)c1ccc(Cc2ccc(C(=O)C(=O)c3ccccc3)cc2)cc1)c1ccccc1 | -1
Cc1ccc(C(=O)OC(C)C)cc1/N=N/N(C)C | -1
O=C(c1ccccc1)c1ccc2n[se]nc2c1 | -1
C[N+](C)(C)CC1CCCC(C[N+](C)(C)C)C1=O (centres undefined) | 1
O=C(Nc1ccc(Cl)cc1Cl)OC(Cn1cncn1)c1ccc(Cl)cc1Cl (centres undefined) | -1
NC1=NN(c2ccccc2)C(=O)C1/C(=N\NC(=O)c1cc2ccccc2cc1O)C(=O)Nc1ccc(Cl)c(Cl)c1 (centres undefined) | -1
O=C1C(Br)=C[C@H]2C3C=CC(Br)(C3=O)[C@@H]12 (some centres undefined) | -1
CC1CC(c2cccc3c2OCO3)=Nc2ccccc2S1 (centres undefined) | -1

====

# Test system: SNB-19
# protocol.description: NCI tumour cell line growth inhibition, 48 h
Calls of active or inactive are those of the source. Rule as the data show it: active = GI50 up to about 1.1 µM and inactive = higher.
Classes used: yes for active, no for inactive

molecule | system | assigned.label
CC1C2CCC3C(O)C2(CC(O)C2(O)C1CC(O)C2(C)C)CC3(C)O (centres undefined) | SNB-19 | no
Nc1ncnc2c1ncn2C1OC(CO)C2OC21 (centres undefined) | SNB-19 | no
C[C@]12CC[C@@H]3c4ccc(OCCN5CCCC5)cc4CC[C@H]3[C@@H]1CCC2=O | SNB-19 | no
COc1ccccc1NS(=O)(=O)c1ccc2ncn(NS(=O)(=O)c3ccc(Cl)cc3)c(=O)c2c1 | SNB-19 | no
C1CC2CN(CCCN3CCOCC3)C(C1)O2 (centres undefined) | SNB-19 | no
CCOc1ccc(NC(=O)C2=C(C)NC(C)=C(C(=O)Nc3ccc(OCC)cc3)C2c2ccccc2)cc1 | SNB-19 | no
O=C(Nn1cnn2c(=O)c3ccccc3nc2c1=O)c1ccccc1 | SNB-19 | no
C/C(=N\Nc1nc2ccccc2o1)c1cc(C)ncn1 | SNB-19 | yes
NC(CCP(=O)(O)CCC1C=CC=CC1)C(=O)O (centres undefined) | SNB-19 | no
CCCCOc1ccc(S(=O)(=O)N/C(N)=N/c2ccc(Cl)cc2)cc1 | SNB-19 | no
COc1ccc2c(c1OC)CN1CCc3cc4c(cc3C1C2)OCO4 (centres undefined) [TETRAHYDROBERBERINE] | SNB-19 | no
CC1CC[P+](c2ccccc2)(c2ccccc2)c2c1ccc1ccccc21 (centres undefined) | SNB-19 | no
CC12CC3(O)OC(O1)C1(COC(=O)c4ccccc4)C3CC21OC1OC(CO)C(O)C(O)C1O (centres undefined) | SNB-19 | no
CCCc1cn2c(/C=N/NC(=N)N)c(-c3cccc([N+](=O)[O-])c3)nc2s1 | SNB-19 | no

====

# Tested on: SF-268
# protocol.description: NCI tumour cell line growth inhibition, 48 h
The source made the active and inactive calls. No stated cut-off is given here; in the data, active = GI50 up to about 1.1 µM and inactive = higher.
value.type: GI50

compound | obs.value
O=C(O)CSc1n[nH]c(=O)[nH]c1=O | > 100 µM (inactive)
O=C(OC1C(Oc2ccccc2COC(=O)C2(O)C=CCCC2=O)OC(CO)C(O)C1O)c1ccccc1 (centres undefined) | 13.2 µM (inactive)
CC1CC[P+](c2ccccc2)(c2ccccc2)c2c1ccc1ccccc21 (centres undefined) | 7.89 µM (inactive)
CC(=O)c1cccc(N2COC(C)(C)c3nc4ccccc4n3C2)c1 | > 100 µM (inactive)

====

# Tested on: TK-10
# protocol.description: NCI tumour cell line growth inhibition, 48 h
The source made the active and inactive calls. Rule as the data show it: active = GI50 up to about 1.1 µM and inactive = higher.

compound | GI50
COc1ccc(S(=O)(=O)NC(CCC(=O)NC(N)=O)C(=O)NC(N)=O)cc1 (stereo not drawn) | > 100 µM (inactive)
Cc1ccc(/N=N/c2c(C)c(C#N)c(=S)n(C3OC(CO)C(O)C(O)C3O)c2C)cc1 (stereo not drawn) | 63.1 µM (inactive)
NC1=CN2c3ccccc3N(CC(=O)N3CCOCC3)C2C=C1 (stereo not drawn) | > 100 µM (inactive)
COc1ccc2nc3cc(Cl)ccc3c(NCCCNCCCNc3c4ccc(Cl)cc4nc4ccc(OC)cc34)c2c1 | 0.0741 µM (active)
BrCCC[P+](c1ccccc1)(c1ccccc1)c1ccccc1 | 80.9 µM (inactive)
OCC1OC(n2cnc3c(SCc4ccccc4)ncnc32)C(O)C1O (stereo not drawn) | > 21.8 µM (inactive)
CN(C)c1ccc(/N=N/c2ccc3[nH]cnc3c2)cc1 | 22.5 µM (inactive)
CC(=O)c1nc2ccccc2n1CC(=O)c1ccc(Cl)cc1 | 61.2 µM (inactive)
Cn1c(N)c(/N=N/c2ccc(S(N)(=O)=O)cc2)c(=O)n(C)c1=O | > 100 µM (inactive)
CC(C(=O)N1C(=O)N(C(=O)C(C)C(O)c2ccccc2)C(c2ccccc2)C1c1ccccc1)C(O)c1ccccc1 (stereo not drawn) | 22.6 µM (inactive)
COc1cccc(NC(=O)C(=O)C(C(C)=O)c2nc3ccc(Cl)cc3nc2O)c1 (stereo not drawn) | > 100 µM (inactive)
O=C(Cc1ccccc1)NN1C(=O)C(Cl)C1c1ccccc1Cl (stereo not drawn) | > 100 µM (inactive)
Cc1nn(C(=O)c2ccc(Cl)cc2)c2c1C(c1ccccc1)SC(=N)N2 (stereo not drawn) | > 10 µM (inactive)

====

Recorded GI50 values for a group of compounds are listed next.
# System: SK-MEL-2
# protocol.description: NCI tumour cell line growth inhibition, 48 h
Activity calls are given as the source filed them. Cut-off read from the data, not from the text of the source: active = GI50 up to about 1.1 µM and inactive = higher.

compound | system | GI50
N#CC(C#N)C(c1ccccc1)c1ccccc1 | SK-MEL-2 | > 100 µM (inactive)
O=c1[c-](-c2ccccc2)[se]c(-c2ccccc2)[n+]1-c1ccccc1 | SK-MEL-2 | 6.55 µM (inactive)
CN(C)c1ccc(-c2nc(N)nc3c2CCCC3)cc1 | SK-MEL-2 | 56.8 µM (inactive)
CC1(C)CCC[C@@]2(C)C1CCC1(C)C(CCc3ccoc3)/C(=C/OS(=O)(=O)O)CCC12 (some centres not stated) | SK-MEL-2 | 58.5 µM (inactive)
CC(=O)Nc1cc2c(s1)CCC1CC(=O)NN=C21 (configuration not stated) | SK-MEL-2 | > 100 µM (inactive)
OCC1OC(n2cnc3c(SCc4ccccc4)ncnc32)C(O)C1O (configuration not stated) | SK-MEL-2 | 96.8 µM (inactive)
CC(C)(C)c1cc(CCC(=O)Nc2ccc(Cl)cc2)nc(NC#N)n1 | SK-MEL-2 | > 100 µM (inactive)

====

# Tested on: MOLT-4
# protocol.description: NCI tumour cell line growth inhibition, 48 h
Active and inactive are the calls of the source. No stated cut-off is given here; in the data, active = GI50 up to about 1.1 µM and inactive = higher.
Classes used: true = active, false = inactive

molecule | assigned.label
O=C1C(=O)N(c2cccc(C(F)(F)F)c2)C(=S)N1c1ccccc1 | false
N#CCc1ccc(C(C#N)/C(CCCC(=O)Nc2cccc([N+](=O)[O-])c2)=N/NC(N)=S)cc1 (centres undefined) | false
NC(CCP(=O)(O)CCC1C=CC=CC1)C(=O)O (centres undefined) | false
CC(=O)C1C(c2ccc(N(C)C)cc2)c2cc3c(cc2OC1(C)O)OCO3 (centres undefined) | false
C[N+](C)(C)CC(=O)N/N=C/c1oc(-c2cccc([N+](=O)[O-])c2)c(-c2cccc([N+](=O)[O-])c2)c1[N+](=O)[O-] | false
O=C(c1ccccc1)c1ccc2n[se]nc2c1 | false
CCCN(CCC)C(=O)c1c(Cl)c2cccnc2n2c(C)cnc12 | false
O=C(CC(CC(=O)Oc1c(Br)cc(Br)cc1C(=O)O)C(=O)Oc1c(Br)cc(Br)cc1C(=O)O)Oc1c(Br)cc(Br)cc1C(=O)O | false
CO[C@@H]1[C@H](OC(=O)NC(=O)CCl)CC[C@]2(CO2)[C@H]1[C@@]1(C)O[C@@H]1CC=C(C)C | false
CC(=O)N(CN1C(=O)CCC1C(=O)O)c1cccc(O)c1 (centres undefined) | false
CC(=O)N1CCc2c([nH]c3ccc(Br)cc23)C1c1ccccc1 (centres undefined) | true
CCCCNc1c(CN)cnc2cc(Cl)ccc12 | false
CN(C)Cc1cc(C(=O)/C=C/c2ccc(/C=C/C(=O)c3cc(CN(C)C)c(O)c(CN(C)C)c3)cc2)cc(CN(C)C)c1O | false
O=S(=O)(NC(c1ccccc1)(c1cc2ccccc2[nH]1)c1cc2ccccc2n1S(=O)(=O)c1ccccc1)c1ccccc1 (centres undefined) | false
